Tested on: Escherichia coli
protocol: Inhibition of Escherichia coli DNA methyltransferase at 15 uM after 30 mins
Calls of active or inactive are those of the source. The calls are words filed in the database; no cut-off is given here.
One label from this list, please: active, inactive

Previously resolved entries follow.
>>> category_label("O=[N+]([O-])c1cccc2c1ncn2[C@@H]1O[C@H](CO)[C@@H](O)[C@H]1O")
"inactive"
>>> category_label("C#CCSC[C@H]1O[C@@H](n2cnc3c(N)ncnc32)[C@H](O)[C@@H]1O")
"inactive"
>>> category_label("CC#CSC[C@H]1O[C@@H](n2cnc3c(N)ncnc32)[C@H](O)[C@@H]1O")
"inactive"
>>> category_label("Nc1ncnc2c1ncn2[C@@H]1O[C@H](CSCC[C@H](N)C(=O)O)[C@@H](O)[C@H]1O")
"active"
>>> category_label("NC(=O)CCSC[C@H]1O[C@@H](n2cnc3c(N)ncnc32)[C@H](O)[C@@H]1O")
"inactive"

Asked: What is the recorded call for this compound in the test? CSC[C@H]1O[C@@H](n2cnc3c(N)ncnc32)[C@H](O)[C@@H]1O
Given back: inactive

Asked: What do we get for C=CCSC[C@H]1O[C@@H](n2cnc3c([N+](=O)[O-])cccc32)[C@H](O)[C@@H]1O ?
Given back: inactive

* * *

System: Escherichia coli
protocol: Inhibition of Escherichia coli DNA methyltransferase at 15 uM after 30 mins
Active and inactive are the calls of the source. The rule behind the calls is not given here.
quantity: Activity

>>> endpoint_value("CCOC(=O)CCSC[C@H]1O[C@@H](n2cnc3c(N)ncnc32)[C@H](O)[C@@H]1O")
"inactive"
>>> endpoint_value("Nc1ncnc2c1ncn2[C@@H]1O[C@H](CCl)[C@@H](O)[C@H]1O")
"inactive"
>>> endpoint_value("C=C=CSC[C@H]1O[C@@H](n2cnc3c(N)ncnc32)[C@H](O)[C@@H]1O")
"inactive"
